testedOn: Nuclear receptor ROR-gamma (Mus musculus)
assayMethodText: qHTS for inhibitors of ROR gamma transcriptional activity; further: nearly all actives have a fitted effect of over 60% in size
testContext: Drosophila S2 Gal4-RORgamma UAS-luciferase reporter, 20 h; series mostly up to 53.6 µM
Hit rate of the full screen: of about 310,000 compounds, about 17,000 (5.5%) were called active. Not shown: some 11% with an inconclusive outcome. The call rests on the fitted dose curve; in most records, active means well fitted inhibition curve with a large enough effect; inconclusive means small, poorly fitted or top-dose-only effect, or effect the other way; inactive means no such curve, though single readings can be large or run the other way. Shown is part of a subset that was picked to be rich in actives.
Respond with a class label; see y (active), n (inactive)

Fill in: this test's call for "COc1ccccc1N1CCN(S(=O)(=O)c2ccc3c(c2)NC(=O)CS3)CC1" is ___ n

Fill in: this test's call for "Cc1cccc(CCNS(=O)(=O)c2ccc3c(c2)NC(=O)CO3)c1" is ___ n

Fill in: this test's call for "Cc1cccc(C(=O)NC(=S)N(C)C2CCCCC2)c1" is ___ y

Fill in: this test's call for O=C(NCCN1CCOC1=O)C1CCC(=O)N(CCc2ccc(Cl)cc2)C1 (stereo not drawn) is ___ n

Fill in: this test's call for CCCN1C2CCCC1CC(NC(=O)c1cccc(OC)c1)C2 (stereo not drawn) is ___ n

Fill in: this test's call for CCC(C)N1C(=S)SC(C)(C)C1N(O)C(=O)NC1CCCCC1 (stereo not drawn) is ___ n

Fill in: this test's call for "COc1ccc(CCNC(=O)c2c(C)nn(-c3ccccc3)c2Cl)cc1" is ___ n

Fill in: this test's call for "Cc1cccc(-c2c(NC(=O)c3ccco3)oc3ccc(Cl)cc3c2=O)c1" is ___ n

Fill in: this test's call for "CC(=O)NCCc1ccc(S(=O)(=O)Nc2ccc(C)c(S(=O)(=O)N3CCOCC3)c2)cc1" is ___ n

Fill in: this test's call for CC(=O)Nc1ccc(S(=O)(=O)Oc2ccc(/C=N/N=C3/NC(=O)C(CC(=O)O)S3)cc2)cc1 (stereo not drawn) is ___ n

Fill in: this test's call for COc1ccc(C(=O)C2CCCN(S(=O)(=O)c3cccc(C)c3)C2)c(C)c1 (stereo not drawn) is ___ n

Fill in: this test's call for "Cc1ccc(S(=O)(=O)N2CCOCC2)cc1C(=O)NCc1ccc(F)cc1" is ___ n

Fill in: this test's call for "O=C(Nc1sc2c(c1C(=O)O)CCC2)c1ccccc1F" is ___ n

Fill in: this test's call for "CCOC(=O)c1sc(NC(=O)c2cc(S(=O)(=O)N3CCOCC3)ccc2C)nc1C" is ___ n

Fill in: this test's call for CC(C)=N/N=C1/NC(=O)C(Cc2ccccc2)S1 (stereo not drawn) is ___ y

Fill in: this test's call for CCC1S/C(=N/N=C/c2ccco2)NC1=O (stereo not drawn) is ___ y

Fill in: this test's call for O=C1N/C(=N\N=C\c2ccco2)SC1Cc1ccc(F)cc1 (stereo not drawn) is ___ y

Fill in: this test's call for "COc1ccc(C(=O)/C=C/Nc2ccccn2)cc1" is ___ y

Fill in: this test's call for CC1C(=O)N(Cc2ccccc2)c2ccccc2N1C(=O)c1ccccc1 (stereo not drawn) is ___ n

Fill in: this test's call for "CCOC(=O)c1c(NC(=O)CCC(=O)NCc2ccco2)sc2c1CCCC2" is ___ n

Fill in: this test's call for "Cc1ccc2nc(N(CCN(C)C)C(=O)C3=COCCO3)sc2c1" is ___ n

Fill in: this test's call for "CC1CCN(CCCn2c(SCC(=O)NC3CCCC3)nc3ccccc3c2=O)CC1" is ___ n

Fill in: this test's call for "COc1ccc(NS(=O)(=O)c2ccc3oc(SCC(N)=O)nc3c2)cc1" is ___ n

Fill in: this test's call for O=C(O)C1CCCN1S(=O)(=O)c1ccc(Br)cc1 (stereo not drawn) is ___ n

Fill in: this test's call for CCCCNC(=O)N(O)C1N(/N=C/c2ccc(N(C)C)cc2)C(=S)SC1(C)C (stereo not drawn) is ___ n

Fill in: this test's call for "CN(C)c1ccc(CNC(=O)CN2C(=O)COc3ccc(S(=O)(=O)N4CCCC4)cc32)cc1" is ___ n

Fill in: this test's call for "O=C1N=C(N2CCc3ccccc3C2)S/C1=C\c1ccc(O)cc1" is ___ y

Fill in: this test's call for COc1ccc(CC(=O)NC2CCSc3ccccc32)cc1OC (stereo not drawn) is ___ n

Fill in: this test's call for "CCCOc1ccc(Cc2c(O)nc(SC)[nH]c2=O)cc1C" is ___ n

Fill in: this test's call for "CCOC(=O)c1c(NC(=S)NC(=O)c2ccco2)sc2c1CCCC2" is ___ y

Fill in: this test's call for Cc1cccc(N(C(=O)Cn2nnc(-c3ccc(C)o3)n2)C(C(=O)NC2CCCC2)c2ccncc2)c1 (stereo not drawn) is ___ n

Fill in: this test's call for "COc1ccc(CN2CCN(C(=O)CCC(=O)Nc3nnc(C(C)C)s3)CC2)cc1F" is ___ n

Fill in: this test's call for "O=C(O)C[C@@H]1NC(=O)[C@H](Cc2ccccc2)NC1=O" is ___ n

Fill in: this test's call for "CCOC(=O)c1c(NC(=S)NC)sc2c1CCCC2" is ___ y

Fill in: this test's call for Cc1cnc(C)c(N2CCN(C(=O)C3CCC(=O)N(CCc4cccc(F)c4)C3)CC2)n1 (stereo not drawn) is ___ n

Fill in: this test's call for "CCOC(=O)c1c(NC(=O)CSc2nnc(C)c(=O)[nH]2)sc2c1CCC2" is ___ n

Fill in: this test's call for "Oc1c(Cl)cc(Cl)c(Cl)c1Cc1c(O)c(Cl)cc(Cl)c1Cl" is ___ y

Fill in: this test's call for "COc1ccc2[nH]c(C(=O)N3CCN(C)CC3)c(C)c2c1" is ___ n

Source listed as PubChem BioAssay AID2551.
